This section presents compounds with their documented GI50 values.
- Test system: PC-3
- protocol_details: NCI tumour cell line growth inhibition, 48 h
Calls of active or inactive are those of the source. Cut-off read from the data, not from the text of the source: active = GI50 up to about 1.1 µM and inactive = higher.

{"compound": "CC1=C(N2CC2)C(=O)C(C)=C(N2CC2)C1=O", "tested_system": "PC-3", "GI50": "0.282 µM (active)"}
{"compound": "C=C(CN(C)C)C(=O)c1ccccc1[N+](=O)[O-]", "tested_system": "PC-3", "GI50": "17.4 µM (inactive)"}
{"compound": "Cc1nc2ccc(Cl)cc2c2c1CCO2", "tested_system": "PC-3", "GI50": "88.1 µM (inactive)"}
{"compound": "COC1=CC(=O)c2c(O)c3c(c(O)c2C1=O)CC(C)(O)OC3 (stereo not drawn)", "tested_system": "PC-3", "GI50": "2.52 µM (inactive)"}
{"compound": "c1ccc(COc2nc3cc(C45CC6CC(CC(C6)C4)C5)ccc3[nH]2)cc1", "tested_system": "PC-3", "GI50": "9.06 µM (inactive)"}
{"compound": "COc1cc(/C=N/N=C2NCCCCN2)ccc1O", "tested_system": "PC-3", "GI50": "> 100 µM (inactive)"}
{"compound": "CCOC(=O)C(CCSC)(CCSC)C(=O)OCC", "tested_system": "PC-3", "GI50": "> 100 µM (inactive)"}
{"compound": "COC(=O)[C@@]12CSC[C@]1(C(=O)OC)N[C@@H](c1ccccc1O)C2", "tested_system": "PC-3", "GI50": "> 100 µM (inactive)"}

----------
- System: UACC-257
- protocol_details: NCI tumour cell line growth inhibition, 48 h
Activity calls are given as the source filed them. Rule as the data show it: active = GI50 up to about 1.1 µM and inactive = higher.
Possible outcomes: YES for active, NO for inactive

{"compound": "O=Cc1ccc2c(c1)CC1(C2)Cc2ccc3c(c2C1)CCC3 (centres undefined)", "assigned_category": "NO"}
{"compound": "C=C1C(=O)OC2CC(C)C3(O)CCC(=O)C3(C)CC12 (centres undefined)", "assigned_category": "NO"}
{"compound": "COCn1cnc2c(=O)n(-c3ccc(C)cc3)c(=S)n(-c3ccc(C)cc3)c21", "assigned_category": "NO"}
{"compound": "Cc1nc(N(C(C)C)C(C)C)c(C(C)C)o1", "assigned_category": "NO"}
{"compound": "C[C@H]1CN[C@@H]2[C@@H](C)[C@H]3[C@@H](C[C@H]4[C@@H]5CC[C@H]6C[C@@H](N)CC[C@]6(C)[C@H]5CC[C@]34C)O[C@@]2(O)C1", "assigned_category": "NO"}
{"compound": "Cc1noc(NC(=O)Nc2ccccc2F)c1C#N", "assigned_category": "NO"}
{"compound": "CN(CCCNc1ccc2ncn3c4ccccc4c(=O)c1c23)CCCN1C(=O)c2cccc3cc([N+](=O)[O-])cc(c23)C1=O", "assigned_category": "YES"}
{"compound": "N/N=C1\\C(=O)N(c2ccc(Cl)cc2Cl)C(=O)C(=O)C1c1nc2ccccc2o1 (centres undefined)", "assigned_category": "NO"}
{"compound": "COc1ccc(OC)c(NC(=O)CCC/C(CC(=O)c2ccc(O)c(OC)c2)=N\\Nc2ccc([N+](=O)[O-])cc2)c1", "assigned_category": "NO"}
{"compound": "O=C1c2c(O)cc(O)cc2C(C2OC(CO)C(O)C(O)C2O)c2cc(CO)cc(O)c21 (centres undefined)", "assigned_category": "NO"}
{"compound": "O/N=N\\c1nc(-c2ccccn2)nc2ccccc12", "assigned_category": "NO"}
{"compound": "COC1=CC(=O)c2c(O)c3c(c(O)c2C1=O)CC(C)(O)OC3 (centres undefined) [FUSARUBIN]", "assigned_category": "NO"}
{"compound": "O=C1/C(=C/c2ccco2)N=C(c2ccccc2)N1c1ccc(S(=O)(=O)Nc2nccs2)cc1", "assigned_category": "NO"}
{"compound": "CCCCCCCCCCCCCCCCCCNc1nc(=O)n(C2CC(OP(=O)(O)OCC3OC(n4cc(F)c(=O)[nH]c4=O)CC3O)C(CO)O2)cc1F (centres undefined)", "assigned_category": "NO"}
{"compound": "Cc1cccc(NC(=O)CCl)c1", "assigned_category": "NO"}
{"compound": "CC(=O)Nc1cc2cc(NS(=O)(=O)c3cc(C(F)(F)F)cc(C(F)(F)F)c3)ccc2oc1=O", "assigned_category": "NO"}
{"compound": "Cc1c(F)c(N)c2c(=O)cc(-c3ccc(N)c(F)c3)oc2c1F [AMINOFLAVONE]", "assigned_category": "YES"}
{"compound": "CC[C@H](CCCC[C@H]1CC[C@@H]2CC(=O)C[C@H]12)OC", "assigned_category": "NO"}
{"compound": "Cc1ccc2nc(NC(=O)C(=O)C(C(=O)c3ccc4ccccc4c3)C3OC(=O)c4ccccc43)sc2c1 (centres undefined)", "assigned_category": "NO"}

----------
- Test system: HOP-62
- protocol_details: NCI tumour cell line growth inhibition, 48 h
Activity calls are given as the source filed them. Cut-off read from the data, not from the text of the source: active = GI50 up to about 1.1 µM and inactive = higher. Where a SMILES comes first, the peptide text is derived from it. [ ]: non-standard residue; d: D form. Ac5c = NC1(C(=O)O)CCCC1
List of GI50 values.

{"molecule": "COC(CCC[N+](C)(C)C)CC[N+](C)(C)C (centres undefined)", "GI50": "> 100 µM (inactive)"}
{"molecule": "COc1cc(C(c2ccccc2)N2C(=O)CC[C@H]2C(=O)O)cc(OC)c1OC (some centres undefined)", "GI50": "> 100 µM (inactive)"}
{"molecule": "O=[N+]([O-])c1cc(/N=N/c2c(O)ccc3cc(S(=O)(=O)O)ccc23)c(O)c([N+](=O)[O-])c1", "GI50": "> 100 µM (inactive)"}
{"molecule": "COC(=O)C1(NC(=O)C(C)NC(=O)C(CCCCN)NC(=O)C(CC(C)C)NC(C)=O)CCCC1 (centres undefined) (Ac-LKA[Ac5c]-OMe; configuration not given here)", "GI50": "> 100 µM (inactive)"}
{"molecule": "O=C(O)C(C1NCCS1)N1C(=O)c2ccccc2C1=O (centres undefined)", "GI50": "> 100 µM (inactive)"}
{"molecule": "CN/N=C(\\C(=O)Nc1ccc(C(F)(F)F)cc1[N+](=O)[O-])C(c1cnc2ccc([N+](=O)[O-])cc2n1)[N+](=O)[O-] (centres undefined)", "GI50": "33 µM (inactive)"}
{"molecule": "O=C1CNc2cc(N3CCCCC3)ccc2N1", "GI50": "> 100 µM (inactive)"}
{"molecule": "COC(=O)C1=C(C)NC(C)=C(C(=O)OCCCN2CCC(c3ccccc3)(c3ccccc3)CC2)[C@H]1c1cccc([N+](=O)[O-])c1", "GI50": "4.6 µM (inactive)"}
{"molecule": "CC1CCCOc2ccc(cc2)/C=N\\c2ccc(cc2)CCc2ccc(cc2)/N=C\\c2ccc(cc2)OCCC1", "GI50": "> 100 µM (inactive)"}
{"molecule": "COC1=CC(=O)c2c(O)c3c(c(O)c2C1=O)CC(C)(O)OC3 (centres undefined)", "GI50": "3.19 µM (inactive)"}
{"molecule": "Cc1cc(CC(=O)NCCO)n(CCO)c(=O)c1", "GI50": "> 100 µM (inactive)"}
{"molecule": "CCCCCCCC1c2cc3nc(cc4[nH]c(cc5nc(cc([nH]2)[C@@]1(C)CC(=O)N(C)C)C(C)=C5CCC(=O)O)c(CCC(=O)O)c4C)C=C3C (some centres undefined)", "GI50": "20.5 µM (inactive)"}
{"molecule": "Clc1cccc(C2SCc3nc4ccccc4n32)c1 (centres undefined)", "GI50": "20 µM (inactive)"}
{"molecule": "CC1=CCC(C)=Nc2nc3ccccc3n21", "GI50": "> 100 µM (inactive)"}
{"molecule": "N=C(N)N/N=C/c1c(-c2ccc([N+](=O)[O-])cc2)nc2sccn12", "GI50": "1.67 µM (inactive)"}
{"molecule": "C=C1C(=O)OC2CC(C)C3(O)CCC(=O)C3(C)CC12 (centres undefined)", "GI50": "28.2 µM (inactive)"}
{"molecule": "OC(c1cc2ccccc2o1)c1cc2ccccc2s1 (centres undefined)", "GI50": "> 10 µM (inactive)"}
{"molecule": "CCC(c1ccccc1)c1cc(C(C)(C)C)cc(C(C)(C)C)c1O (centres undefined)", "GI50": "16.2 µM (inactive)"}
{"molecule": "CCOc1ccc(/N=N/C2C(=O)N(C(=O)CC(=O)Nc3ccc(Cl)cc3)N=C2C)cc1 (centres undefined)", "GI50": "> 100 µM (inactive)"}

----------
- System: U-251
- protocol_details: NCI tumour cell line growth inhibition, 48 h
Activity calls are given as the source filed them. No stated cut-off is given here; in the data, active = GI50 up to about 1.1 µM and inactive = higher.
Classes used: active, inactive

{"molecule": "Cc1nc(N(C(C)C)C(C)C)c(C(C)C)o1", "assigned_category": "inactive"}
{"molecule": "COC(=O)C1=C(O)C(C(=O)OC)[C@@]2(O)[C@@H](C(=O)OC)C(c3ccc(OC(=O)/C=C/c4ccccc4)cc3)C[C@@H]1[C@@H]2C(=O)OC (stereo not given in full)", "assigned_category": "inactive"}
{"molecule": "CCSC1=C(C#N)C2(CCCCC2)C2=C(O)CC(C)(C)CC2=N1", "assigned_category": "inactive"}
{"molecule": "C1=Cc2ccccc2C1.C=C(C)c1ccccc1.[N-]=[N+]=Nc1ccccc1", "assigned_category": "inactive"}
{"molecule": "CCNc1cnc2c(n1)c(=O)n(C)c(=O)n2C", "assigned_category": "inactive"}
{"molecule": "O=C(Nc1ccc(Br)cc1)C(=O)C(C(=O)c1ccc(Cl)c(Cl)c1)C1OC(=O)c2ccccc21 (stereo not given)", "assigned_category": "inactive"}
{"molecule": "CC(C)(CCCCC(C)(C)NCC1COc2ccccc2O1)NCC1COc2ccccc2O1 (stereo not given)", "assigned_category": "inactive"}
{"molecule": "CN1CCN(P2(=S)Oc3ccc4ccccc4c3-c3c(ccc4ccccc34)O2)CC1", "assigned_category": "inactive"}
{"molecule": "Cc1c(F)c(N)c2c(=O)cc(-c3ccc(N)c(F)c3)oc2c1F [AMINOFLAVONE]", "assigned_category": "inactive"}
{"molecule": "CC(C)(C)C1CC[C@H]2c3c([nH]c4ccc(Br)cc34)[C@H]3C(=O)N(c4ccccc4)C(=O)[C@H]3[C@H]2C1 (stereo not given in full)", "assigned_category": "inactive"}
{"molecule": "Cc1csc2nc(-c3ccncc3)cn12", "assigned_category": "inactive"}
{"molecule": "COC(CCC[N+](C)(C)C)CC[N+](C)(C)C (stereo not given)", "assigned_category": "inactive"}
{"molecule": "CN(C)c1ccc(C(=NN)c2ccc(N(C)C)cc2)cc1", "assigned_category": "active"}
{"molecule": "COc1cc(/C=N/N=C2NCCCCN2)ccc1O", "assigned_category": "inactive"}
{"molecule": "COc1c2occc2cc2ccc(=O)oc12 [METHOXSALEN]", "assigned_category": "inactive"}
{"molecule": "Cc1c(/C=N\\NC(=S)N2CCN(C(=S)N/N=C\\c3c(C)n(C)n(-c4ccccc4)c3=O)CC2)c(=O)n(-c2ccccc2)n1C", "assigned_category": "inactive"}
{"molecule": "COc1cc2c(cc1OC)-c1cc3ccccc3c[n+]1CC2", "assigned_category": "inactive"}
{"molecule": "COc1ccccc1C1SCC(=O)N1c1ccc(-c2ccc(-n3c(-c4ccccc4)nc4ccccc4c3=O)cc2)cc1 (stereo not given)", "assigned_category": "inactive"}
{"molecule": "CCN(CC)CCn1ccc(=O)c2cc3c(=O)ccn(CCN(CC)CC)c3c(C)c21", "assigned_category": "inactive"}
{"molecule": "CC1(C)OC2C(=O)OC(COCc3ccccc3)C2O1 (stereo not given)", "assigned_category": "inactive"}

Taken from ChEMBL document CHEMBL1201862.
